For each entry below, report its pEC50 value.
TARGET_OR_SYSTEM: NL20 human bronchial epithelial cells expressing human Z-AAT (Homo sapiens, UniProt P01009, E366K)
Construct: doxycycline added with compounds)
Sequence (P01009 25-418 E366K): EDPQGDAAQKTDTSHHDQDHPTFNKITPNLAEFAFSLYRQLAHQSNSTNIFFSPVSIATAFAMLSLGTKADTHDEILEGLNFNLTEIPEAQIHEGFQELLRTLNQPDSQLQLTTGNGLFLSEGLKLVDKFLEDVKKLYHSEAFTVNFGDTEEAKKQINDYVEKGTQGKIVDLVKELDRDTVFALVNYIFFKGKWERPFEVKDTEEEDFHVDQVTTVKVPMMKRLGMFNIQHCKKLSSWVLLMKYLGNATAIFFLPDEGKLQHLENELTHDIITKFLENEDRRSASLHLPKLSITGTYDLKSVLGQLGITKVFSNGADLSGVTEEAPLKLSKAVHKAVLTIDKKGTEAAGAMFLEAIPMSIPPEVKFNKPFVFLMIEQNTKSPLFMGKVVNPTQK
TEST: AAT Function Assay (MSD Assay NL20-SI Cell Line)
CONDITION_DESCRIPTION: read-out: NL20 Functional EC50
pEC50: −log10 of the molar value.

INPUT: // Input: COc1cc(-n2c(C(C)(C)CC#N)c(-c3ccc(C(=O)O)c(OC)c3)c3ccc(F)cc32)ccc1F [Compound B14] . Output its pEC50 only.
OUTPUT: 5.70 to 6.30

INPUT: Identify measured pEC50 corresponding to COc1cc(-c2c(C3CCOCC3)n(-c3ccc(F)cc3)c3cccc(O)c23)ccc1C(=O)O [Compound 81]
OUTPUT: < 5.70

INPUT: For COc1cc(-n2c(C(C)C)c(-c3ccc(C(=O)O)cc3)c3c(O)cc(F)cc32)ccc1F [Compound 532] , write its pEC50.
OUTPUT: > 6.30

INPUT: Note pEC50 for the compound shown: Cc1cc(-n2c(C3CCOCC3)c(-c3ccc(C(=O)O)cc3)c3cc(F)ccc32)ccc1F [Compound B1]
OUTPUT: 5.70 to 6.30

INPUT: # return recorded pEC50 for entry CC(c1c(-c2ccc(C(=O)O)cc2)c2c(O)cccc2n1-c1ccc(F)cc1)C1CCOC1 (single isomer, unassigned) [Compound 209]
OUTPUT: 5.70 to 6.30

INPUT: Please look at this compound and report its pEC50: Cc1cc(-n2c(C(C)C)cc3c(O)cccc32)ccc1F [Compound 334]
OUTPUT: < 5.70

INPUT: Output pEC50 of O=C(O)c1ccc(-c2c3c(O)cccc3n(-c3ccc(F)cc3)c2[C@H]2C[C@@H](O)C2)cc1 [Compound 187]
OUTPUT: < 5.70

INPUT: Write down pEC50 measured for item COCC1(c2c(-c3ccc(C(=O)O)cc3)c3c(O)cccc3n2-c2ccc(F)c(OC)c2)COC1 [Compound 224]
OUTPUT: < 5.70

INPUT: Quick one: give measured pEC50 for O=C(O)c1cc(-c2c(C3CCOCC3)n(-c3ccc(F)cc3)c3cccc(O)c23)cnc1C(F)(F)F [Compound 69]
OUTPUT: < 5.70

INPUT: Answer with reported pEC50 of Cc1ccc2c(c1O)c(-c1ccc(C(=O)O)cc1)c(C1CCOCC1)n2-c1ccc(F)cc1 [Compound 105]
OUTPUT: < 5.70

INPUT: Specify measured pEC50 for O=C(O)c1ccc(-c2c(C3CCOCC3)n(-c3ccc(F)cc3)c3ccc(F)cc23)cc1 [Compound B8] .
OUTPUT: < 5.70

INPUT: Query pEC50 for COc1cc(-n2c(C(C)(C)CO)c(-c3ccc(C(=O)O)cc3)c3c(O)cc(F)cc32)ccc1F [Compound 232]
OUTPUT: 5.70 to 6.30

INPUT: Give recorded pEC50. CC(C)(O)Cn1cc(-c2c(C3CCOCC3)n(-c3ccc(F)cc3)c3cccc(O)c23)cn1 [Compound 396]
OUTPUT: < 5.70

INPUT: # return recorded pEC50 for entry O=C(O)c1ccc(-c2c(C3CCOCC3)n(-c3ccc(F)cc3)c3cccc(O)c23)s1 [Compound 85]
OUTPUT: 5.70 to 6.30

INPUT: State its pEC50 for this compound: CNC(=O)CC(C)(C)c1c(-c2ccc(C(=O)O)cc2)c2c(O)cccc2n1-c1ccc(F)cc1 [Compound 134]
OUTPUT: < 5.70

All figures here come from patent US20230159502A1.
